For each of the molecules below, state its GI50.
System: HCT-15
Assay: Growth inhibition of human HCT15 cells after 48 hrs by SRB assay
Format: functional
Conditions: HCT-15, 48 h
Answers are plain numbers, in nM.

Past entries and their recorded results:
>>> df
                            compound_smiles  reading
0  COc1ccc(-c2cnnn2-c2cc(OC)c3c(c2)OCO3)cc1       45
1    COc1ccc(/C=C\c2cc(OC)c(OC)c(OC)c2)cc1O        4

Continue with the molecule presented below.
Input: Return reported GI50. Input molecule: COc1ccc(-c2nn[nH]c2-c2cc(OC)c3c(c2OC)OCO3)cc1
Output: 454

---

System: SF-268
Assay: Growth inhibition of human SF268 cells after 48 hrs by SRB assay
Assay type: functional
Settings: SF-268, 48 h
Result Type: GI50 (µM)
Give bare numbers, in µM.

Worked cases, answers included:
>>> df
                                   compound  result_type  reading
0  COc1ccc(-c2nn[nH]c2-c2cc(OC)c(OC)c(OC)c2)cc1         GI50    0.021
1  COc1ccc(-c2nn[nH]c2-c2cc(OC)c3c(c2OC)OCO3)cc1         GI50     4.02
2  COc1ccc(-c2nn[nH]c2-c2cc(OC)c3c(c2)OCO3)cc1         GI50    0.101
3  COc1ccc(-c2cnnn2-c2cc(OC)c3c(c2)OCO3)cc1         GI50    0.611

Input: Given COc1ccc(/C=C\c2cc(OC)c(OC)c(OC)c2)cc1O [COMBRETASTATIN A4] , respond with its GI50.
Output: 0.006

---

I'd appreciate it if you could supply GI50 values for the items below.
System: HCT-116
Assay: Growth inhibition of human HCT116 cells after 48 hrs by SRB assay
Format: functional
Conditions: HCT-116, 48 h
Numbers only, in nM.

Some solved cases for reference:
>>> df
                                   compound  endpoint_unit  reading
0  COc1ccc(-c2nn[nH]c2-c2cc(OC)c3c(c2OC)OCO3)cc1             nM      353
1  COc1ccc(/C=C\c2cc(OC)c(OC)c(OC)c2)cc1O [COMBRETASTATIN A4]             nM        3
2  COc1ccc(-c2nn[nH]c2-c2cc(OC)c3c(c2)OCO3)cc1             nM       19

Input: Supply measured GI50 of COc1ccc(-c2cnnn2-c2cc(OC)c3c(c2)OCO3)cc1 in your reply.
Output: 64

---

Test system: COLO 205
Experiment: Growth inhibition of human COLO205 cells after 48 hrs by SRB assay
Format: functional
Conditions: COLO 205, 48 h
Kindly apply the following: Criterion met if GI50 is less than 100 nM, Criterion not met in every other case.

// below: answered compounds
>>> print(df.to_string())
                            compound_smiles  study_target           category
0  COc1ccc(-c2cnnn2-c2cc(OC)c3c(c2)OCO3)cc1      COLO 205      Criterion met
1  COc1ccc(-c2nn[nH]c2-c2cc(OC)c3c(c2OC)OCO3)cc1      COLO 205  Criterion not met
2  COc1ccc(-c2nn[nH]c2-c2cc(OC)c(OC)c(OC)c2)cc1      COLO 205      Criterion met

Turning now to a further record.
Input: hey, is GI50 for COc1ccc(-c2nn[nH]c2-c2cc(OC)c3c(c2)OCO3)cc1 lower than 100 nM or not?
Output: Criterion not met
